Listing: IC50 of selected compounds
experimental_system: Recombinant human Cbl-b (aa 36-427) (Homo sapiens (Human), UniProt Q13191)
Sequence (Q13191 36-427): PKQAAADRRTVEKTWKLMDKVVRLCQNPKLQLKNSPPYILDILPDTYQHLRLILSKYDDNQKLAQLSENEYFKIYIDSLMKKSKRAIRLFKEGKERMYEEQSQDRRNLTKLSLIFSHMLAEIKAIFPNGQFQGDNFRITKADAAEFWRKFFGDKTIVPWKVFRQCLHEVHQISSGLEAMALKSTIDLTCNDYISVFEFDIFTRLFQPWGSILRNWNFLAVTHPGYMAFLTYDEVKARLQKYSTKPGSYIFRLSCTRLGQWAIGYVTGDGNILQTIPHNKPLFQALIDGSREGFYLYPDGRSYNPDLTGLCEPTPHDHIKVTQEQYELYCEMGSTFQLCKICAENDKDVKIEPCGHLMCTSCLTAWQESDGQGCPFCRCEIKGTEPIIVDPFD
run_description: Cbl-b Biochemical Assay (TR-FRET)
condition_info: read-out: TR-FRET hCbl-b IC50

Before answering, review these 3 worked examples.
Kindly note the recorded IC50 for CO[C@H](C)CNCc1cc(F)c2c(c1)C(=O)N(c1cc(-c3ccc(C#N)cc3-c3nncn3C)cc(C3CC3)n1)C2 [AKV-1] , which is ≤ 200 nM

Kindly note the recorded IC50 for Cn1cnnc1-c1cc(C#N)ccc1-c1cc(C2CC2)nc(N2Cc3ccc(CNCC4(F)CCC4)cc3C2=O)c1 [AJX-1] , which is ≤ 200 nM

Kindly note the recorded IC50 for Cn1cnnc1-c1cc(C#N)ccc1-c1cccc(C(=O)Nc2cc(CN[C@@H]3CCC[C@@H]3O)cc(C(F)(F)F)c2N)c1 [ADW-5] , which is 1000 to 10000 nM

Continuing:
Kindly note the recorded IC50 for CCNc1cc(-c2ccc(C#N)cc2-c2nncn2C)cc(N2Cc3c(cc(CN4CCC[C@H](C)C4)cc3C(F)(F)F)C2=O)n1 [ADT-2] , which is ≤ 200 nM
